System: Streptococcus pneumoniae
test name: Antibacterial activity against erythromycin-susceptible Streptococcus pneumoniae 49619 by broth-microdilution method
Format: functional
Entries annotated with measured MIC

>  <molecule>
C=C1CO[C@H]2[C@H](C)[C@@H](O[C@@H]3O[C@H](C)C[C@H](N(C)C)[C@H]3O)[C@](C)(C[C@@H](C)C(=O)[C@H](C)[C@@H]3NC(=O)O[C@]3(C)[C@@H](CC)OC(=O)[C@@H]2C)OC1

>  <target entity>
Streptococcus pneumoniae

>  <MIC>
≤ 0.06 µg/mL

$$$$
>  <molecule>
C=C1CO[C@H]2[C@H](C)[C@@H](O[C@@H]3O[C@H](C)C[C@H](N(C)C)[C@H]3O)[C@](C)(C[C@@H](C)[C@H](N)[C@H](C)[C@@H](O)[C@](C)(O)[C@@H](CC)OC(=O)[C@@H]2C)OC1

>  <target entity>
Streptococcus pneumoniae

>  <MIC>
≤ 0.06 µg/mL

$$$$
>  <molecule>
C=C1CO[C@H]2[C@H](C)[C@@H](O[C@@H]3O[C@H](C)C[C@H](N(C)C)[C@H]3O)[C@](C)(C[C@@H](C)C(=N)[C@H](C)[C@@H](O)[C@](C)(O)[C@@H](CC)OC(=O)[C@@H]2C)OC1

>  <target entity>
Streptococcus pneumoniae

>  <MIC>
0.125 µg/mL

$$$$
>  <molecule>
C=C1CO[C@H]2[C@H](C)[C@@H](O[C@@H]3O[C@H](C)C[C@H](N(C)C)[C@H]3O)[C@](C)(C[C@@H](C)/C(=N\O)[C@H](C)[C@@H](O)[C@](C)(O)[C@@H](CC)OC(=O)[C@@H]2C)OC1

>  <target entity>
Streptococcus pneumoniae

>  <MIC>
≤ 0.06 µg/mL

$$$$
>  <molecule>
C=C1CO[C@H]2[C@H](C)[C@@H](O[C@@H]3O[C@H](C)C[C@H](N(C)C)[C@H]3O)[C@](C)(C[C@@H](C)C(=O)[C@H](C)[C@@H](O)[C@](C)(O)[C@@H](CC)OC(=O)[C@@H]2C)OC1

>  <target entity>
Streptococcus pneumoniae

>  <MIC>
0.125 µg/mL

$$$$

Input line: If you can, please state the reported MIC value of CC[C@H]1OC(=O)[C@H](C)[C@@H](O[C@H]2C[C@@](C)(OC)[C@@H](O)[C@H](C)O2)[C@H](C)[C@@H](O[C@@H]2O[C@H](C)C[C@H](N(C)C)[C@H]2O)[C@](C)(O)C[C@@H](C)C(=O)[C@H](C)[C@@H](O)[C@]1(C)O [ERYTHROMYCIN] .
Output line: ≤ 0.06 µg/mL

Cited source for all entries: ChEMBL document CHEMBL1152201
